B1: glmS ribozyme (parent)
chain: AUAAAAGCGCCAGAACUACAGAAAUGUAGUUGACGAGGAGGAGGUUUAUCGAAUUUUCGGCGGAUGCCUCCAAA

- Variants of: B1
- procedure.text: KM; higher = weaker cofactor use; RNA array
- condition.context: with glucosamine-6-phosphate
Label true when KM is at or above 2000 µM; otherwise label false.

Example entries begin here.
>  <sequence.record>
AUAAAAGCGCUAUAACUACAGAAAUGUAGUUGACGAGGAGGAGGUUUAUCGAAUUUUCGGCGGAUGCCUCCAAA

>  <label.value>
false

$$$$
>  <sequence.record>
AUAAAAGCGCCAGAACUACAGAAAUGUAGUUGACGAGGCGGAGGUUUAUCGAAUUUUCGGCGGAUGCCUUCAAA

>  <label.value>
false

$$$$
>  <sequence.record>
AUAAAAGCGCCAGUACUACAGAAAUGUAGUUGACGAGGAGGAGGUUUAUCGAAUUUUCGGCGGAUUCCUCCAAA

>  <label.value>
true

$$$$
>  <sequence.record>
AUAAAAGCGCCAGCACUACAGAAAUGUAGUUGACGAGGAGGAGGUUUAUCGUAUUUUCGGCGGAUGCCUCCAAA

>  <label.value>
false

$$$$
>  <sequence.record>
AUAAAAGCGCCGGAACUACAGAAAUGUAGUUGACGAGGAGGAGGUUUAUCGAGUUUUCGGCGGAUGCCUCCAAA

>  <label.value>
true

$$$$

For the next question, use this variant.
[ask] Can AUAAAAGCGCCAGAACUACAGAAAUGUAGUUGACGAGGAUGAGGUUUAUCGAAUCUUCGGCGGAUGCCUCCAAA be said to have KM at or above 2000 µM?
[reply] true
